Data provenance: ChEMBL document CHEMBL1201862

Target: Cytochrome P450 2C19 (Homo sapiens, UniProt P33261)
Sequence (P33261 whole entry): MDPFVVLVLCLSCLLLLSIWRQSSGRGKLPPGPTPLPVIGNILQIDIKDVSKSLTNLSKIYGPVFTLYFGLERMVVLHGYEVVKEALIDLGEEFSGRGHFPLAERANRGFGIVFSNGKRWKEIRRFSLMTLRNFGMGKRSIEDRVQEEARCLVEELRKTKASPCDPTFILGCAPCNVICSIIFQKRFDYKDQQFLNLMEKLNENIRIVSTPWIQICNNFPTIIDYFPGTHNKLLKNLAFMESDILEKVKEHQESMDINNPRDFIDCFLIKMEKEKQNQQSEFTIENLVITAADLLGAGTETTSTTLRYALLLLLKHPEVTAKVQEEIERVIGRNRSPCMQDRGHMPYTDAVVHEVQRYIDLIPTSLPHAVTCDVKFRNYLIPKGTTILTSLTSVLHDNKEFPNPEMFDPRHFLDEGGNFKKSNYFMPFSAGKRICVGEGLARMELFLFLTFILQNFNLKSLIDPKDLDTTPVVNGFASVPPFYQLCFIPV
Assay: Cytochrome panel assay with activity outcomes. Panel member name: p450-cyp2c19 Compounds with AC50 equal or less than 10 uM are considered active
Type: functional
Settings: read-out: AC50
Parameter: AC50

Per the record, `Cc1c(NC(=O)/C=C/C(=O)O)cccc1[N+](=O)[O-]` has AC50 of 15.8 µM (inconclusive)

Entry `COc1ccc(-c2oc3ccccc3c(=O)c2OC(=O)c2ccc(C)cc2)cc1` , AC50 reported as 1 µM (inconclusive)

Looking up `Cc1ncc2c(c1O)COP(=O)(O)OC2` , I found its AC50 recorded as 5.01 µM (inconclusive)

// AC50 value for `CCOC(=O)CSC1=NC(=O)/C(=C\c2ccc(Cl)cc2)S1` : 3.16 µM (inconclusive)

Form: compound = O=C(NCC(=O)N(c1ccccc1)C(C(=O)NC1CCCC1)c1cccnc1)c1cccs1 (centres undefined) ; AC50 = 15.8 µM (inconclusive)

get_value(item= `Cc1ccc2cc(C)c3nnc(SCC(=O)NCc4ccco4)n3c2c1` , readout=AC50) returns 14.1 µM (inconclusive)

Recorded AC50 (compound Cc1cccc(C)c1NC(=O)C(c1ccccc1)N1CCC1=O (centres undefined) ): 20 µM (inconclusive)

Lab book: AC50 of `Cc1ccc(NC(=O)C(=O)NCc2ccc(/C=C(/C#N)C(=O)NCc3cccnc3)o2)cc1` noted as 7.08 µM (inconclusive)

// AC50 value for `COCc1nnc(NC(=O)CC(c2ccccc2)c2ccccc2)s1` : 14.1 µM (inconclusive)

Reported AC50 ( `O=C(Nc1cccc(F)c1)N1CCC2(CCNCC2)CC1` ) = 20 µM (inconclusive)

Kindly note the recorded AC50 for CCOC(=O)C1CCCN(c2ncnc3c2cnn3-c2ccc(Cl)cc2)C1 (centres undefined) , which is 22.4 µM (inconclusive)

Quick note, AC50 for `COc1cc(N2CCOCC2)ncn1` landed at 0.00562 µM (inconclusive)

CC(=O)Nc1ccc(N2C(=O)CSC2c2c(F)cccc2Cl)cc1 (centres undefined) has a reported AC50 of 39.8 µM (inconclusive)

The compound identified as `Cc1cc(N)ccc1NC(=O)c1ccccc1` registered its AC50 at 20 µM (inconclusive)

###

Target: Peroxisome proliferator-activated receptor gamma/Nuclear receptor coactivator 2 (Homo sapiens, UniProt P37231)
Sequence (P37231 whole entry): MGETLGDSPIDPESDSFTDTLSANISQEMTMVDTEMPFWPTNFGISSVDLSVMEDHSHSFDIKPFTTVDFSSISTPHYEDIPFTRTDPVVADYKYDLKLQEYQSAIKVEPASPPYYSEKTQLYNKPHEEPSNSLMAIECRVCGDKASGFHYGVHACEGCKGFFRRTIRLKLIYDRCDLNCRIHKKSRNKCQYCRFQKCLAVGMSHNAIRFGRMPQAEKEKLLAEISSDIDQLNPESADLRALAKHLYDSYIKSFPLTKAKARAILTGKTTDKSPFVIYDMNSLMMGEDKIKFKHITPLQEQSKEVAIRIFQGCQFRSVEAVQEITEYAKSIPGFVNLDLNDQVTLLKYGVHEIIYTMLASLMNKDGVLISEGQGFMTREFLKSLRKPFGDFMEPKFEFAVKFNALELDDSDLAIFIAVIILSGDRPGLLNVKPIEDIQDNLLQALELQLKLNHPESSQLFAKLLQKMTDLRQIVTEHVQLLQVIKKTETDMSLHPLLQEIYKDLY
Sequence (Q15596 whole entry, further chain): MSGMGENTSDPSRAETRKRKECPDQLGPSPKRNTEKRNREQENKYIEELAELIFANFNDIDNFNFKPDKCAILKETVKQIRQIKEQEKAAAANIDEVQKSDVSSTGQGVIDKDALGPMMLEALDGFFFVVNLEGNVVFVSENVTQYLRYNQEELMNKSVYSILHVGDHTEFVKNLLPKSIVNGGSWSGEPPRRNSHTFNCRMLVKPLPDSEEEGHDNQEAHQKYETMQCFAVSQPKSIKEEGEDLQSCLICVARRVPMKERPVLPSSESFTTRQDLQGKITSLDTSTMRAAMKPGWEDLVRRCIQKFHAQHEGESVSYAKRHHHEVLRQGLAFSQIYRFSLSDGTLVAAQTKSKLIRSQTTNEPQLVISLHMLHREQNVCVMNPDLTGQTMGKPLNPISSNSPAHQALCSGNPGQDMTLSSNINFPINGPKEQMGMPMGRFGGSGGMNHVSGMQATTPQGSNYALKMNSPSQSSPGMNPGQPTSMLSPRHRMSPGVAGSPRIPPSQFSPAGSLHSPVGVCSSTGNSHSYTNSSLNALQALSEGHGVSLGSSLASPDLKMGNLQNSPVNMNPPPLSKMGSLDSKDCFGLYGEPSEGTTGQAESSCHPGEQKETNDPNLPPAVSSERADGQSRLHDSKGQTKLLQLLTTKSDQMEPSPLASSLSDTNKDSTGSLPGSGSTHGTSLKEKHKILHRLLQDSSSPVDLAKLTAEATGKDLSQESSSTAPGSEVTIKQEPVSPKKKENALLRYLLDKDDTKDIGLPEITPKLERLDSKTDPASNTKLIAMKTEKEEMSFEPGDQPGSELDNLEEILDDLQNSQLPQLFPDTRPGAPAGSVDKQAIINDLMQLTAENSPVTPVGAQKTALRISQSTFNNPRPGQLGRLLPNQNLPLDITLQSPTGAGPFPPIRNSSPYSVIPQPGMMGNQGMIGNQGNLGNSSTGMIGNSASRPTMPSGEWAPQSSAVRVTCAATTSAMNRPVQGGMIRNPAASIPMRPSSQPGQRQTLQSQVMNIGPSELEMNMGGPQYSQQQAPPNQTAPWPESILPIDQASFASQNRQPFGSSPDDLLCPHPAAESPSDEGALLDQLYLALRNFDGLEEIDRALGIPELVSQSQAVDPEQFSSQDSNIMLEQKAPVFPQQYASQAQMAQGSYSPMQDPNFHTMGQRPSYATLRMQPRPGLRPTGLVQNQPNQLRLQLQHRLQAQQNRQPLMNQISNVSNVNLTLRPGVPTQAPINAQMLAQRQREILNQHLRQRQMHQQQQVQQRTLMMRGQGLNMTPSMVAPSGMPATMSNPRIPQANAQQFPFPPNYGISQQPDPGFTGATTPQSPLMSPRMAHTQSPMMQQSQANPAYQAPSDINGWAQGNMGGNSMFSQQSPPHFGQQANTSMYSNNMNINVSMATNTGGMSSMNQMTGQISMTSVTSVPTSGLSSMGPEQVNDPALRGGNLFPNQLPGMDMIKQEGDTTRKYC
Test: TR-FRET dose response biochemical High Throughput Screening assay for agonists of the steroid receptor coactivator 2 (SRC-2) recruitment by the peroxisome proliferator-activated receptor gamma (PPAR gamma): non-selective agonists. [Related pubchem assays: 1297, 1032 ]
Format: functional
Calls of active or inactive are those of the source.
Parameter: EC50

EC50 recorded for this compound, `O=c1c2cn[nH]c2[nH]c(=S)n1-c1cccc2ccccc12` , is > 79.4 µM (not active)

Lab book: EC50 of `CCn1c(=O)cc(SCC(=O)N2CCCCC2)c2ccccc21` noted as > 79.4 µM (not active)

Entry Cc1ccc(C(=O)C2=C(O)C(=O)N(c3ncccn3)C2c2ccc(Cl)cc2)o1 (stereo unspecified) — recorded EC50 = 35.8 µM (not active)

// field: EC50; key: `COc1cccc(CNC(=O)CSc2cc(=O)n(C)c3ccccc23)c1` ; value = > 79.4 µM (not active)

Lab note: `Cc1ccccc1-c1nnc(S)o1` gave EC50 of 9.69 µM (active)

Record summary for `N#Cc1c(Cl)nc(SCc2ccccc2)nc1-c1ccccc1` : reported EC50 = 5.16 µM (active)
